# credit: ChEMBL document CHEMBL1151540

Reported inhibition values for the following compounds.
Biological target: Tartrate-resistant acid phosphatase type 5 (Homo sapiens) (UniProt P13686)
Sequence (P13686 whole entry, looked up): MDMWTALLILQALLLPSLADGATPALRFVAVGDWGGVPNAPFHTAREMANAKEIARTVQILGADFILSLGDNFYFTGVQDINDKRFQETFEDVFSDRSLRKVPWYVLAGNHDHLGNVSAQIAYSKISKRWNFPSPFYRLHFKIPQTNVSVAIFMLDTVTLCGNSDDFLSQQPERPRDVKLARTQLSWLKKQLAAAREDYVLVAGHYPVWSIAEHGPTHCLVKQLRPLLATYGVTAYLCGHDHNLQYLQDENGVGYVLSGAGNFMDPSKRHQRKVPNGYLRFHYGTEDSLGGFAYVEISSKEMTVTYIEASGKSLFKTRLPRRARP
Assay: Tested for inhibition of human Osteoclastic acid phosphatase (OAP), purified from the spleen of a patient with hairy cell leukemia at 100 uM
readout kind: inhibition (%)

COc1ccc(CC(c2cccc3ccccc23)P(=O)(O)O)cc1 (stereo not drawn) ... 73
O=C(c1ccccc1)C(C(=O)c1ccccc1)(c1cccc2ccccc12)P(=O)(O)O ... 96
O=P(O)(O)C(Cc1ccccc1)c1cccc2ccccc12 (stereo not drawn) ... 92
O=P(O)(O)C(O)c1cccc2ccccc12 (stereo not drawn) ... 10
O=P(O)(O)Cc1cccc2ccccc12 ... 64
O=P(O)(O)C(Cc1ccccc1)c1ccc2ccccc2c1 (stereo not drawn) ... 19
O=P(O)(O)C(Cc1ccc(Cl)cc1)(Cc1ccc(Cl)cc1)c1cccc2ccccc12 ... 87
Cc1ccc2ccccc2c1C(CC1CCCCC1)P(=O)(O)O (stereo not drawn) ... 90
O=C(c1ccc2ccccc2c1)C(c1cccc2ccccc12)P(=O)(O)O (stereo not drawn) ... 95
O=P(O)(O)C(CC1CCCCC1)c1cccc2ccccc12 (stereo not drawn) ... 73
O=P(O)(O)C(Cc1ccc(-c2ccccc2)cc1)c1cccc2ccccc12 (stereo not drawn) ... 100
O=P(O)(O)Cc1ccc2ccccc2c1 ... 4
O=[N+]([O-])c1ccc(CC(c2cccc3ccccc23)P(=O)(O)O)cc1 (stereo not drawn) ... 80
O=P(O)(O)C(Cc1ccccc1)c1ccccc1 (stereo not drawn) ... 15
Cc1ccc(CC(c2cccc3ccccc23)P(=O)(O)O)cc1 (stereo not drawn) ... 75
Cc1ccc2ccccc2c1CP(=O)(O)O ... 20
O=P(O)(O)Cc1ccccc1 ... 0
O=P(O)(O)C(Cc1ccc(Cl)cc1)c1cccc2ccccc12 (stereo not drawn) ... 94
